method-notes: basal RPMI8226 mitochondrial membrane potential changes, profiling panel, cell-based, JC-1 fluorescence, 24 h, 100 nL compound (AID 1169); note: test concentration not given here
experimental-parameters: RPMI8226 myeloma, JC-1 mitochondrial potential fluorescence, higher = more signal
z-score overview
Write no unit; give the number alone.

Challenge: Reported z-score for CO[C@H]1O[C@H](CO)[C@@H](OC(=O)Nc2ccccc2)[C@H](OC(=O)Nc2ccccc2)[C@@H]1OC(=O)Nc1ccccc1 : what is it?
Response given: -1.07

Challenge: Endpoint output: z-score of CNS(=O)(=O)c1ccc(C)cc1 . Value?
Response given: -0.049

Challenge: Given the compound CN(C)CCCCCCNC(=O)[C@H]1C[C@H]2C(=O)N[C@@H](CCCCN)C(=O)N2[C@H]1c1cccc(OCCO)c1 , what is its reported z-score?
Response given: -0.636

Challenge: Entry COC(=O)C(CC#Cc1ccc2c(c1)[C@]1(C(=O)N2)[C@H](C(=O)Nc2nc3ccccc3s2)[C@H]2C(=O)O[C@H](c3ccccc3)[C@H](c3ccccc3)N2[C@@H]1c1ccccc1OCCO)C(=O)OC has what z-score?
Response given: -1.17

Challenge: I would be grateful if you could share the reported z-score for C=C(/C(=C/C[C@H](OC(C)=O)c1ccc(CO)o1)c1cc(C(=O)OC)ccc1OC)C(C)C .
Response given: 0.104

Challenge: Reported z-score for C=C(C)[C@@H]1CC=C(C(O)C2C=CC3C(=O)N(C)C(=O)C3N2Nc2ccccc2)CC1 (stereo not given in full) : what is it?
Response given: -0.334

Challenge: Query (compound): CC(C)[Si](C#Cc1ccc(Oc2ccccc2)cc1)(O[Si](C#Cc1ccc(Oc2ccccc2)cc1)(C(C)C)C(C)C)C(C)C ; field requested: z-score
Response given: 0.0384

Challenge: Bench note: what z-score did [N-]=[N+]=NCc1ccccc1[C@@H]1OC(c2ccc(OCCCO)cc2)=N[C@]1(Cc1ccccc1)C(N)=O show?
Response given: -0.75

Challenge: Given CCCC#C[Si](O[C@H](CC)c1cn(Cc2cccc(Cl)c2)nn1)(C(C)C)C(C)C , state its recorded z-score.
Response given: -0.112

Challenge: Could you share which z-score value was measured for [N-]=[N+]=Nc1ccccc1[C@@H]1OC(c2ccc(OCCCO)cc2)=N[C@]1(Cc1ccccc1)C(=O)N1CCOCC1 ?
Response given: -1.21

Challenge: Quick check: z-score of C=C(COC)/C(=C/C[C@@H](OC(=O)c1ccncc1)c1ccc(CO)o1)c1cc(C(=O)OC)ccc1OC ?
Response given: -0.277

Challenge: Item [N-]=[N+]=NCc1ccccc1C[C@]1(C(=O)N2CCCCC2)N=C(c2ccc(OCCCO)cc2)O[C@H]1c1ccccc1N=[N+]=[N-] has what recorded z-score?
Response given: -1.16

Challenge: // returns reported z-score for input COC(=O)[C@@]1(Cc2ccccc2)[C@H]2c3cc(C(=O)N4CCCC4)n(Cc4ccc(S(C)(=O)=O)cc4)c3C[C@H]2CN1C(=O)c1ccccc1
Response given: 0.148

Challenge: Please report the recorded z-score for CCCCCN1CC=CC23O[C@@H]4C=CCCOC(=O)C4[C@H]2C(=O)N(CCCCCO)[C@@H]3C1=O (stereo not given in full) .
Response given: 0.159

Challenge: Quick one: z-score of COC(=O)[C@@]1(Cc2ccc(OC)cc2)[C@H]2c3cc(C(=O)N(C)C)n(CCc4ccccn4)c3C[C@H]2CN1C(=O)c1ccccc1 ?
Response given: -0.772

* * *

method-notes: small-molecule microarray binders of probe aWnt5a, primary screen, biochemical, biotinylated probe, 635/667 nm fluorescence (AID 1113);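 note: score merges 667 nm fluorescence intensity with signal-to-noise per printed feature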
experimental-parameters: higher = more signal
The entries below come with measured composite z-score values attached.
Reply with the value as a number alone.

Recorded composite z-score, per entry:
CC(C)N1C(=O)c2ccccc2[C@](C)(C(=O)NCCN2CCOCC2)[C@@H]1c1ccc(CO)cc1 = -0.139
C=CCNC(=O)[C@H]1[C@@H]2C(=O)O[C@@H](c3ccccc3)[C@@H](c3ccccc3)N2[C@@H](c2ccccc2OCCO)[C@]12C(=O)Nc1ccc(C#CCC(C(=O)OC)C(=O)OC)cc12 = 0.0914

Challenge: Given the molecule Oc1ccc2cc[n+](Cc3sc4ccccc4c3Cl)cc2c1 , what is its reported composite z-score?
Response given: -0.124

Challenge: What composite z-score value was documented for this molecule, COC(=O)[C@H](Cc1ccccc1)N[C@@H](/C=C/C1CC1)[C@H](O)Cc1ccccc1 ?
Response given: 0.454

Challenge: Would you kindly share the measured composite z-score for COC(=O)[C@@]1(Cc2ccc(OC)cc2)[C@@H]2C(=CC(=O)[C@H]2CC(=O)C(=O)N2CCCC2)CN1C(=O)c1ccccc1 ?
Response given: 0.368

Challenge: Given CCOC(=O)C[C@H]1[C@H](OC(=O)c2ccc(C(=O)c3ccccc3)cc2)[C@@H](NC(=O)CC(C)C)c2cc(OCCCO)ccc2N1C(=O)c1ccc2ccccc2n1 , state its recorded composite z-score.
Response given: -0.0704

Challenge: Consider the molecule Cc1ccc(S[C@]2(C(=O)NC3CC3)CC(=O)N(Cc3ccccc3)[C@@H]2c2ccc(CO)cc2I)cc1 and give its measured composite z-score.
Response given: -0.0221

* * *

System: Lefty1
method-notes: Lefty1 binders on small-molecule microarrays, primary screen, biochemical, small-molecule microarray, 635/667 nm fluorescence (AID 1139)
experimental-parameters: small-molecule microarray binding, fluorescence 635/667; higher = more signal
assay-metric: composite z-score
// return a plain number; no unit text

O=C1N(Cc2ccccc2)c2ccccc2[C@@H]2OC(c3ccc(OCCCO)cc3)=N[C@]12CCS(=O)(=O)c1ccccc1 = 0.0829
CCOC(=O)C[C@H]1[C@H](OC(=O)c2ccc(C(=O)c3ccccc3)cc2)[C@@H](NC(=O)c2ccc3ccccc3c2)c2cc(OCCCO)ccc2N1C(=O)Cc1ccc(OC)cc1 = 0.199
CC(C)=CCN[C@H](CO)c1ccccc1 = 0.564

Now for a further compound.
Challenge: Given the compound COC(=O)[C@@]1(Cc2ccccc2)[C@H]2c3cc(C(=O)N4CCCC4)n(Cc4ccc(S(C)(=O)=O)cc4)c3C[C@H]2CN1C(=O)c1ccccc1 , what is its reported composite z-score?
Response given: -0.07

* * *

target: Torsin-1A-interacting protein 1 (Homo sapiens)
method-notes: LAP1 binders from COS7 cell lysate, primary screen, small-molecule microarray, 635/667 nm fluorescence (AID 1116)
experimental-parameters: COS7-hLAP1 lysate binding, 635 nm fluorescence, higher = more signal
Classify as follows. Reported composite z-score greater than or equal to 0.8: Yes. Reported composite z-score below: No.

Challenge: Has O=C(CS)NCCCCCCNC(=O)[C@@H]1C[C@@H]2C(=O)NCC(=O)N2[C@@H]1c1cccc(OCCO)c1 a recorded composite z-score greater than or equal to 0.8?
Response given: Yes

Challenge: Check the entry CCCC[C@@H]1C[C@H]1[C@@H](NC(=O)C(C)(C)C)c1ccc(C(F)(F)F)cc1 : does composite z-score equal or exceed 0.8?
Response given: No

Challenge: Please tell me: is the compound C=CC[C@@]1(C(=O)NCCN2CCOCC2)N=C(c2ccc(OCCCO)cc2)O[C@@H]1c1ccccc1N=[N+]=[N-] at or over 0.8 in terms of composite z-score?
Response given: Yes

Challenge: Has C=CCN1C(=O)[C@]2(O[C@H](CCn3cc([C@H](O)c4ccccc4)nn3)[C@@H]([Si](C)(C)c3ccc(OC)cc3)[C@@H]2C)c2ccccc21 a recorded composite z-score greater than or equal to 0.8?
Response given: No

Challenge: # bool: composite z-score of C=CCOC(=O)[C@@H]1[C@H]2C(=O)O[C@H](c3ccccc3)[C@H](c3ccccc3)N2[C@H](c2ccc(OCCOC(=O)[C@@H]3C[C@@H]4C(=O)NCC(=O)N4[C@@H]3c3ccc(O)cc3)cc2)[C@@]12C(=O)Nc1ccc(I)cc12 >= 0.8
Response given: Yes

Challenge: Check if composite z-score >= 0.8 (inclusive). Item: C=CC[C@]1(C(=O)NCCCOC)N=C(c2ccc(OCCCO)cc2)O[C@H]1c1ccccc1CN=[N+]=[N-]
Response given: Yes

Challenge: Could you tell me if the measured composite z-score of CC1(C)C2C=C(C(O)C3C=CC4C(=O)NC(=O)C4N3Nc3ccc(Cl)cc3Cl)C[C@@H]1C2 (some centres undefined) reaches 0.8 or more?
Response given: Yes

Challenge: Assess whether reported composite z-score for CO[C@H]1O[C@H](CO)[C@@H](OC(=O)Nc2ccc(C(F)(F)F)cc2)[C@H](OC(=O)Nc2ccc3c(c2)OCO3)[C@@H]1OC(=O)Nc1ccc2c(c1)OCO2 sits at 0.8 or higher.
Response given: Yes

Challenge: Is composite z-score for C=C(CCCC)/C(=C/C[C@@H](OC(=O)c1ccncc1)c1ccc(OCCO)cc1)c1cc(C(=O)OC)ccc1OC at or above 0.8?
Response given: Yes

Challenge: hey, is composite z-score for this one >= 0.8? O=C(NCCO)C1=C[C@H](Oc2ccccc2I)[C@@H](O)[C@H](N(Cc2ccco2)C(=O)Cc2ccccc2)C1
Response given: No

Challenge: Has O=C1NC(=O)C2C1C=CC(C(O)c1cc(C(F)(F)F)cc(C(F)(F)F)c1)N2Nc1ccccn1 (centres undefined) a recorded composite z-score greater than or equal to 0.8?
Response given: Yes

Challenge: Reported composite z-score reaches at least 0.8 for Cc1ccc(S[C@]2(C(=O)NCCCN(C)C)CC(=O)N(Cc3ccccc3C(F)(F)F)[C@@H]2c2ccc(CO)cc2)cc1 ?
Response given: No

Challenge: Does O=C1C[C@]2(c3ccc([N+](=O)[O-])cc3)C(=O)N(CC(F)(F)F)c3cc(CO)ccc3[C@H]2N1C1CCCCC1 have a reported composite z-score of at least 0.8?
Response given: No

Hey, just so you know, these numbers are from PubChem BioAssay.
